- SYSTEM UNDER TEST: Left-right determination factor 2 (Homo sapiens) (UniProt O00292)
- Sequence (O00292 whole entry, looked up): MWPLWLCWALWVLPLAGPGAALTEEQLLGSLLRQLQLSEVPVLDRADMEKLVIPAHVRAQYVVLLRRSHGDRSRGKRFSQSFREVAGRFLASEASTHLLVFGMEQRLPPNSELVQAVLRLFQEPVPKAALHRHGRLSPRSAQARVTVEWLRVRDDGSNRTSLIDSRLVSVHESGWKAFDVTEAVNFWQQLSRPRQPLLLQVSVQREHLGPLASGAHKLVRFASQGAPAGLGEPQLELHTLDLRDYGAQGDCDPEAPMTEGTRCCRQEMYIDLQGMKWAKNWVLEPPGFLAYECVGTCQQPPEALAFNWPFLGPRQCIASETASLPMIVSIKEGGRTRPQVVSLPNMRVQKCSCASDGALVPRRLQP
- ASSAY EXPLANATION: LEFTY2 binders on small-molecule microarrays, primary screen, biochemical, small-molecule microarray, 635 nm fluorescence scan (AID 1110)
- COND: LEFTY2 binding, higher = more signal
Please provide measured composite z-score for the entries that follow.
Give bare numbers.

Observe how each entry below is paired with its result.
CCN1C(=O)[C@H]2[C@H]3[C@H](O)[C@H](O)CC(=NOC[C@@H](C)[C@H](OCc4ccccc4)C(C)C)[C@@H]3CC[C@H]2C1=O: 0.358
C/C=C\[C@@H](NCc1ccccc1Br)[C@@H](O)Cc1ccccc1: -0.472

Field: composite z-score. Fill in for each record below.
1. COC(=O)[C@H](C)NC(=O)[C@@H](C)CO
2. COc1ccc(CCNC(=O)[C@@H]2c3ccccc3C(=O)N(c3ccc(C)cn3)[C@H]2c2ccc(CO)cc2)cc1
3. CO[C@@H]1COC(=O)CC=C[C@@H](C)COC(=O)[C@H](COCc2ccccc2)NC(=O)CC=C[C@H]1C
4. CC(CCN1CCCCc2nc(C)c(C)cc21)=NOC(C)CN1CCCc2nc(C)c(C)cc21 (stereo not given)

Output line:
1: 0.5; 2: -1.76; 3: 1.02; 4: 1.12
